Provide the recorded Phagocytosis EC50 (ug/mL), Donor 1 for the entries that follow.
- measurement-target: CD47 on CCRF-CEM cells (human, UniProt Q08722 19-323)
- Sequence (Q08722 19-323): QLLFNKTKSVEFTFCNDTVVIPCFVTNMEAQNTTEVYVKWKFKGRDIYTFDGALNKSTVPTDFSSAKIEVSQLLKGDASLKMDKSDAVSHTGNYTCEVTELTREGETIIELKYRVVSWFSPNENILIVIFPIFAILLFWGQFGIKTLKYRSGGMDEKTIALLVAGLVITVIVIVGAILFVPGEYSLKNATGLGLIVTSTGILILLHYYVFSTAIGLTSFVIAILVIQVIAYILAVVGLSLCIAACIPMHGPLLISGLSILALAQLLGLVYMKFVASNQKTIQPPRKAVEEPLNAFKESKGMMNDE
- assay-procedure: cell-based or functional assay
One number for each entry, in µg/mL.

Example binders with recorded Phagocytosis EC50 (ug/mL), Donor 1:
Ab480/Ab1121 (HC Ab480, LC Ab1121) anti-CD47 antibody (antibody, V domains shown, FR and CDR L2 variant of AbParental; The label order is HC/LC although the head says 'LC/HC'; r442 is used) VH: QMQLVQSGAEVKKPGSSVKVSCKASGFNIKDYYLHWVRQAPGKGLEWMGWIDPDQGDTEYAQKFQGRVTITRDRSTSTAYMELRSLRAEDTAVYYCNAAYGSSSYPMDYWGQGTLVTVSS VL: NIQMTQSPSSLSASVGDRVTITCRASQDIHRYLSWFQQKPGKVPKHLIYRYIRFVDGVPSRFSGSGSGTEFTLTISSLQPEDFATYYCLQYDEFPYTFGGGTKVEIK = 0.43
Ab356/Ab1127 (HC Ab356, LC Ab1127) anti-CD47 antibody (antibody, V domains shown, FR and CDR L2 variant of AbParental; The label order is HC/LC although the head says 'LC/HC'; r460 is used) VH: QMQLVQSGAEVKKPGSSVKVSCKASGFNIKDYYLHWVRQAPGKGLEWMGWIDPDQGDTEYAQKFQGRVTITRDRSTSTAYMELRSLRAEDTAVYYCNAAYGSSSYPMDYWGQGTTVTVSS VL: NIQMTQSPSSLSASVGDRVTITCRASQDIHRYLSWFQQKPGKVPKHLIYRESRFVDGVPSRFSGSGSGTEFTLTISSLQPEDFATYYCLQYDEFPYTFGGGTKVEIK = 0.66

Now for another entry.
Q) Return reported Phagocytosis EC50 (ug/mL), Donor 1; argument: Ab356/Ab1122 (HC Ab356, LC Ab1122) anti-CD47 antibody (antibody, V domains shown, FR and CDR L2 variant of AbParental; The label order is HC/LC although the head says 'LC/HC'; r445 is used) VH: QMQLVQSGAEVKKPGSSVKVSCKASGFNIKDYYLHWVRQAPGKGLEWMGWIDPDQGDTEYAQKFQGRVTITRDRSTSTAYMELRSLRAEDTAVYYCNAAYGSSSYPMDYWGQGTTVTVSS VL: NIQMTQSPSSLSASVGDRVTITCRASQDIHRYLSWFQQKPGKVPKHLIYRYERFVDGVPSRFSGSGSGTEFTLTISSLQPEDFATYYCLQYDEFPYTFGGGTKVEIK
A) 1.07
